- EXPERIMENTAL_TARGET: mouse TAAR1 (Mus musculus, UniProt Q923Y8)
- Construct: expressed in transfected cells
- Sequence (Q923Y8 whole entry): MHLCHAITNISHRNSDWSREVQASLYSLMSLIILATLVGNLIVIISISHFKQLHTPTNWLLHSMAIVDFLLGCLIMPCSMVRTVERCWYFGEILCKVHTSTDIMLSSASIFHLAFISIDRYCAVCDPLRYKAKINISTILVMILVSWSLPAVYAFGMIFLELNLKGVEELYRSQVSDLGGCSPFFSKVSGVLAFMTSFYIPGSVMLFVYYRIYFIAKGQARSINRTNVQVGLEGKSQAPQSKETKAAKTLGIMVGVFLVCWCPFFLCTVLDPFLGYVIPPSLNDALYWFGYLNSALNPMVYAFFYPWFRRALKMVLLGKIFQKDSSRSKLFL
- TEST_NAME: In vitro functional activity (cAMP assay) at mouse TAAR1 receptor in recombinant HEK293 cells
- Assay type: cell-based
- EXPERIMENTAL_SETUP: HEK293; relative to phenylethylamine having 100% agonistic activity; read-out: % efficacy
Where a name gives a salt, the structure may show the parent alone.
READOUT_TYPE: Emax (%)

Examples with their reported Emax follow.
O=C(Nc1ccc([C@H]2CNCCO2)cc1)c1ccc(OCC(F)(F)F)nc1 [Example S13, hydrochloride]; 54
NC1=N[C@@H](CCc2ccc(NC(=O)c3ncc(Cl)cn3)cc2)CO1 [Example S10]; 32
CC[C@@H](C[C@H]1COC(N)=N1)Oc1cccc(O)c1 [Example S5]; 51
NC1=N[C@@H](c2ccc(Cl)cc2C(F)(F)F)CO1 [Example S3]; 67
Cc1c(F)cccc1[C@H]1COC(N)=N1 [Example S2]; 65

[a] C[C@H](OC[C@H]1COC(N)=N1)c1ccc(F)cc1 [Example S9]
[b] O=C(NCc1ccc(F)cc1)Nc1ccc([C@H]2CNCCO2)cc1 [Example S15, hydrochloride]
[c] N#Cc1cccc(NC(=O)Nc2ccc([C@H]3CNCCO3)cc2)c1 [Example S16, hydrochloride]
Rank items: key Emax, increasing. // rank by listing labels in the order requested b, c, a
(b: 40%, c: 60%, a: 99%)

---

- EXPERIMENTAL_TARGET: mouse TAAR1 (Mus musculus, UniProt Q923Y8)
- Construct: expressed in transfected cells
- TEST_NAME: In vitro functional activity (cAMP assay) at mouse TAAR1 receptor in recombinant HEK293 cells
- Type: cell-based
- EXPERIMENTAL_SETUP: HEK293 cells expressing mouse TAAR1, cAMP assay; read-out: EC50
pEC50: −log10 of the molar value. Structures can show the parent of a compound that is named as a salt.
READOUT_TYPE: pEC50

Solved entries:
NC1=N[C@@H](CCc2ccc(NC(=O)c3ccc(Cl)cc3)cc2)CO1; 10.00
O=C(Nc1ccc(C2CCNC2)cc1)c1ccc(Cl)cc1 (racemic) [Example S6, hydrochloride]; 8.85
CC[C@@H](C[C@H]1COC(N)=N1)c1ccccc1; 8.70
O=C(Nc1ccc([C@H]2CNCCO2)cc1)c1ccnc(C(F)(F)F)c1 [Example S14, hydrochloride]; 8.34
Cc1c(F)cccc1[C@H]1COC(N)=N1; 8.74

[I] O=C(NCc1ccc(F)cc1)Nc1ccc([C@H]2CNCCO2)cc1 [Example S15, hydrochloride]
[II] O=C(Nc1ccc(C2CCNC2)cc1)c1ccc(Cl)cn1 (racemic) [Example S8, hydrochloride]
[III] O=C(Nc1ccc([C@H]2CNCCO2)cc1)c1ccc(Cl)nc1 [Example S17, hydrochloride]
# rank_down: sort by pEC50, max first # output: labels, in the requested order I, III, II
(I: 9.22, III: 8.74, II: 8.13)

[a] CC[C@@H](C[C@H]1COC(N)=N1)Oc1cccc(O)c1
[b] CCN(C[C@H]1COC(N)=N1)c1ccccc1
Choose between a and b : whose measured pEC50 value is numerically larger? Mark your selection by writing its label. a
(a: 8.80, b: 8.48)
